# assayed system: T1, Human CD228 protein (human, UniProt P08582 20-708, limits assumed)
# T1 construct: Recombinant protein made in CHO cells, purified over a Ni column; The printed entry begins with the leader (MRGPSG...) and ends with ten His; also called hCD228; CD228-His protein
# T1 sequence: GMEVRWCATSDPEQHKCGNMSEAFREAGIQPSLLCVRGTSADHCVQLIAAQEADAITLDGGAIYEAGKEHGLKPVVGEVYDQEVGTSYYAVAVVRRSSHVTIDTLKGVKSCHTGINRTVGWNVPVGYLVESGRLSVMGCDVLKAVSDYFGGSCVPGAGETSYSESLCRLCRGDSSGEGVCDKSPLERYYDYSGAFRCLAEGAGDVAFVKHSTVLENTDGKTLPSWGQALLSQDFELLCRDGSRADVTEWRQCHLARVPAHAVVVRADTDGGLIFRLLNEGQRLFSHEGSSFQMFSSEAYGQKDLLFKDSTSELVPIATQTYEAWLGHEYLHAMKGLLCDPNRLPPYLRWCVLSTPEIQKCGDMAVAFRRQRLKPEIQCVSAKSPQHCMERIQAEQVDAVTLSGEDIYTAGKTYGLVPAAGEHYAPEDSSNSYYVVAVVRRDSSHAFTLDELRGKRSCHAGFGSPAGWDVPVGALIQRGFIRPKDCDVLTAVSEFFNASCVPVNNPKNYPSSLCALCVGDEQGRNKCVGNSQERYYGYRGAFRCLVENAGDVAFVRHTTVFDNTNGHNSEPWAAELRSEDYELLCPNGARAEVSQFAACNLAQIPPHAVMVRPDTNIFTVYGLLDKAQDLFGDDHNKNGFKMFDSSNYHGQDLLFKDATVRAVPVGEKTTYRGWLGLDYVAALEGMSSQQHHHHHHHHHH
# experiment notes: Octet competition on His-chip CD228; competitor: CA518
observation type: Octet response value

binder="BA352 (antibody, human IgG1, kappa, V domains shown, Intact IgG1) VH: EVQLVESGGGVVQPGRSLRLSCAASGFTFSSYAMHWVRQAPGKGLEWVAVISYDGSNKYYADSVKGRFTISRDNSKNTLYLQMNSLRAEDTAVYYCARGPYLAAAGTALTFDIWGQGTMVTVSS VL: DIQMTQSPSAMSASVGDRVTITCRASQGINNYLAWFQQKPGKVPKRLIYAASSLQSGVPSRFSGSGSGTEFTLTISSLQPEDFATYYCLQHNSYPFTFGPGTKVDIKR" value_observed=0.458
binder="CA13 (antibody, human IgG1, kappa, V domains shown, Intact IgG1 from fully human antibody-transgenic mice) VH: EVQLVESGGGVVQPGRSLRLSCAASGFTFSSYAMHWVRQAPGKGLEWVAVISYDGSNKYYADSVKGRFTISRDNSKNTLFLQMNSLRAEDTAVYYCARDVYHYGSRSPYYYGMDVWGQGTTVTVSS VL: DIVMTQSPSSLSASVGDRVTITCRASQGISNYLAWFQQKPGKVPKLLIYAASTLQSGVPSRFSGSGSGTDFTLTISSLQPEDVATYYCQKYNSAPFTFGPGTKVDIKR" value_observed=-0.0081
binder="CA67 (antibody, human IgG1, kappa, V domains shown, Intact IgG1) VH: EVQLVESGGGVVQPGRSLRLSCAASGFTFSSYAMHWVRQAPGKGLEWVAVISYDGSNKYYADSVKGRFTISRDNSKNTLYLQMNSLRAEDTAVYYCARDVYHYGSRSPYYYGMDVWGQGTTVTVSS VL: DIQMTQSPSSLSASVGDRVTITCRASQAISNYLAWYQQKPGKVPKLLIYAASTLHPGVPSRFSGSGSGTDFTLTISSLQPEDVATYYCQKYNSAPFTFGPGTKVDIKR" value_observed=-0.0133
binder="CA185 (antibody, human IgG1, kappa, V domains shown, Intact IgG1) VH: EVQLVESGGGVVQPGRSLRLSCAASGFTFSSYAMHWVRQAPGKGLEWVAVISYDGSNKYYADSVKGRFTISRDNSKNTLYLQMNSLRAEDTAVYYCAREVPYYYGSGPFDYWGQGTLVTVSS VL: EIVLTQSPGTLSLSPGERATLSCRASQSVSSSSLAWYQQKPGQAPRHLIDGASSRASGIPDRFSGSGSGTDFTLTISRLEPEDFAVYYCQQYGSSYTFGQGTKVDIKR" value_observed=0.0029
binder="CA149 (antibody, human IgG1, kappa, V domains shown, Intact IgG1; also called CA149 antibody) VH: EVQLVESGGGVVQPGRSLRLSCAASGFTFSSYAMHWVRQAPGKGLEWVAVISFDGSNKYYTDSVKGRFTISRDNSKNTLYLQMNSLRAEDTAVYYCAREVPYYYGSGPFDYWGQGTLVTVSS VL: EIVLTQSPATLSVSPGERATLSCRASQSVSSNLAWYQQKPGQAPRHLIDGASSRASGIPDRFSGSGSGTDFTLTISRLEPEDFAVYYCQQYGSSPPFTFGPGTKVDIKR" value_observed=0.0079
